Reference source: ChEMBL document CHEMBL1201862

Tested on: A498
Measurement Notes: NCI tumour cell line growth inhibition, 48 h
Active and inactive are the calls of the source. No stated cut-off is given here; in the data, active = GI50 up to about 1.1 µM and inactive = higher. Starred links: 1 amine or outer side, 2 acyl side, 3 side chain; linkers in the order of their positions; H or OH if unused. Non-standard residues stand in square brackets, D forms with d. Residues, ends and D or L forms follow the SMILES beside them. ξ: configuration not given here. X24 = O=C(C(CC(O)CO)O[*:1])[*:2]; Ile(3ξ) = CCC(C)[C@H](N)C(=O)O; NMeV = CN[C@H](C(=O)O)C(C)C; NMeA = CN[C@@H](C)C(=O)O; βAla = NCCC(=O)O
Outcomes: T = active, F = inactive

| Compound | Cat |
| --- | --- |
| Cc1cc(Cl)ccc1NC(=O)C1C(=O)C(=O)N(c2ccc(Cl)cc2C)C1=O (stereo not given) | F |
| Cc1csc(-n2c(C)nc3cc(Cl)ccc3c2=O)n1 | F |
| CSc1ncnc2c1cnn2Cc1cnnn1COCC(O)CO (stereo not given) | F |
| CN(CCc1ccccn1)C(=S)N/N=C(\c1ccccc1)c1ccccn1 | T |
| CN(C)Cc1cc(/N=N/c2c(Cl)cccc2Cl)ccc1O | F |
| N#C/N=C(/N)NCO | F |
| COc1cc(O)c(C(=O)/C=C/c2ccc(O)cc2)cc1Oc1ccc(C(=O)/C=C/c2ccc(O)cc2)c(O)c1 [RHUSCHALCONE IV] | F |
| CN(C)/C=N/c1ccc2c3c(cccc13)-c1ccccc1-2 | F |
| CCC1(N)C(=O)OCc2c1cc1n(c2=O)Cc2cc3ccccc3nc2-1 (stereo not given) | F |
| O=c1c2ccccc2nc(-c2ccccc2)n1/N=C/c1ccccc1[N+](=O)[O-] | F |
| Cc1ccccc1Nc1nc2c(s1)C(=O)c1ccccc1C2=O | F |
| Cc1cc(S(=O)(=O)NC2=Nc3cccc(F)c3CN2)c(S)cc1Cl | F |
| CC1(c2cccc(Cl)c2)CC(c2cccc(Cl)c2)=C(C#N)C(=C(C#N)C#N)N1 (stereo not given) | F |
| CCN1CCN(c2ccc(Nc3ccnc4ccc5c(nnn5C)c34)cc2)CC1 | F |
| COC(=O)C1=C(C)NC(C)=C([N+](=O)[O-])C1c1cccc(N=O)c1 (stereo not given) | F |
| CCC(C)[C@@H]1NC(=O)[C@@H]2CCCN2C(=O)C(CC(O)CO)OC(=O)CCNC(=O)[C@H](C)N(C)C(=O)[C@H](C(C)C)N(C)C1=O (stereo not given in full) (cyclo([Ile(3ξ)][NMeV][NMeA][βAla][X24]P)) | F |
| CCCCCCCC(=O)OCC(COC(=O)C(C)(C)C)OC(=O)Cc1ccccc1 (stereo not given) | F |
| C#C[C@]1(O)CC[C@H]2[C@@H]3CCC4=C/C(=N/NC(=O)c5cccc6cc7ccccc7nc56)CC[C@@H]4[C@H]3CC[C@@]21CC | F |
| CCOC1=CP(=O)(OCC)CC(C)=C1Cl (stereo not given) | F |
| Cc1cc(-c2cscn2)c(O)c([N+](=O)[O-])c1 | F |

---

System: COLO 205
Measurement Notes: NCI tumour cell line growth inhibition, 48 h
Calls of active or inactive are those of the source. Cut-off read from the data, not from the text of the source: active = GI50 up to about 1.1 µM and inactive = higher.
The following compounds are shown together with reported GI50 values.

| Compound | GI50 |
| --- | --- |
| COC(=O)CC(=O)C[P+](c1ccccc1)(c1ccccc1)c1ccccc1 | 168 µM (inactive) |
| COC(=O)/C(=N/O)C(C(=O)OC)C(=O)C(=O)Nc1c(Cl)cc(C)cc1S(=O)(=O)O (stereo not drawn) | > 100 µM (inactive) |
| COC(OC)C1(c2ccccc2)Oc2ccccc2C1=O (stereo not drawn) | > 100 µM (inactive) |
| CCCCCCC(O)C(=O)OC1C2C(CC1(C)C)C(O)C13OC1C(O)C1(CO1)[C@@]23C (stereo partly drawn) | 49.2 µM (inactive) |
| CCOC(=O)c1ccc2c(c1)Cc1cc([N+](=O)[O-])ccc1-2 | 23.2 µM (inactive) |
| C=CCOC1CC(n2cnc3c(N)ncnc32)OC1CO (stereo not drawn) | > 100 µM (inactive) |
| O=C1c2ccccc2-c2c1c(-c1cccc(Br)c1)nc1ccc3ccccc3c21 | > 100 µM (inactive) |
| C=CCNC(=S)N/C=C(/C(C)=O)C(=O)Nc1ccccc1C | > 100 µM (inactive) |
| COC(=O)C1C(OC(=O)c2ccccc2)CC2CCC1N2C(N)=O (stereo not drawn) | > 100 µM (inactive) |
| COc1ccc(-c2c(C#N)c(S)n(NS(=O)(=O)c3ccccc3)c(=O)c2C#N)cc1 | 58.1 µM (inactive) |
| CCCC/C=C1\CCC(CN2CCOCC2)C1=O (stereo not drawn) | 2.97 µM (inactive) |
| Cc1cc(O)c2c(c1)C(=O)c1cc(O)cc(O)c1C2=O | 19.8 µM (inactive) |
| CN1C(=O)C(O)C[C@@H]1c1ccc(F)cc1 (stereo partly drawn) | > 100 µM (inactive) |

---

Tested on: HCT-15
Outcome Measure: GI50

| Molecule | Outcome Measure | Test Value |
| --- | --- | --- |
| C=CCC1(C(=O)OC)CCC/C(=N\O)C1 (stereo unspecified) | GI50 | > 10 µM |
| COC(=O)/C(=N/O)C(C(=O)OC)C(=O)C(=O)Nc1c(Cl)cc(C)cc1S(=O)(=O)O (stereo unspecified) | GI50 | > 100 µM |
| CO/N=C(\C)CCC#Cc1ccccc1C(=O)OC | GI50 | > 10 µM |
| CSc1cc(Cl)c(C)cc1S(=O)(=O)NC(=O)NNc1cnc2ccccc2n1 | GI50 | > 100 µM |
| O=c1nc(-c2ccccc2)scc1-c1ccccc1 | GI50 | > 100 µM |
| O=C1OC(c2ccccc2)=N/C1=C/c1cccs1 | GI50 | 36.7 µM |
| CC(=O)Nc1ccc(Nc2nc(=O)[nH]c(=O)[nH]2)cc1 | GI50 | > 100 µM |
| CCCCCCCC(=O)OCC(COC(=O)C(C)(C)C)OC(=O)Cc1ccccc1 (stereo unspecified) | GI50 | > 100 µM |
| N/C(=N\Nc1nc2cc([N+](=O)[O-])ccc2o1)c1ccccn1 | GI50 | 0.0287 µM |
| CC(=O)O[C@H]1CC[C@@]2(C)C(=CC[C@@H]3C2CC[C@]2(C)Nc4c(cnn4-c4ccccc4)CC32)C1 (stereo partly specified) | GI50 | 10.4 µM |
| Cc1cc(S(=O)(=O)NC2=NNC(C)CN2)c(S)cc1Cl (stereo unspecified) | GI50 | 32.1 µM |

---

The following molecules are shown together with reported GI50 values.
Tested on: A549
Measurement Notes: NCI tumour cell line growth inhibition, 48 h
The source made the active and inactive calls. Cut-off read from the data, not from the text of the source: active = GI50 up to about 1.1 µM and inactive = higher.

| Smiles Data | GI50 |
| --- | --- |
| COc1ccc(NC(C)=O)c(C(=O)CCNC(C)=O)c1 | > 100 µM (inactive) |
| O=C1OC(c2ccccc2)=N/C1=C/c1cccs1 | > 100 µM (inactive) |
| C/C(=N\NS(=O)(=O)c1ccc(C)cc1)P(=O)(O)O | > 100 µM (inactive) |
| CC1(C)CCC[C@]2(C)[C@@H]1CC[C@@]13O[C@@H]1C1=C(CO)C(=O)OC1=C[C@@H]23 | 10.4 µM (inactive) |
| COC(=O)/C(C#N)=C1\NN=NN1CCCc1ccccc1 | > 100 µM (inactive) |
| COC(=O)c1c2c(cc3c1CCC3)CCC2 | 61.2 µM (inactive) |
| COc1cc2c(cc1OC)C(=O)/C(=C/c1cc(C)c(O)c(C)c1)C2 | < 0.0165 µM (active) |
| CCOC(=O)c1ccc(NCc2ccc3nc(OC)c(OC)nc3c2)cc1 | > 100 µM (inactive) |
| CSc1cc(Cl)c(C)cc1S(=O)(=O)NC(=O)NNc1cnc2ccccc2n1 | > 100 µM (inactive) |
| O=C(NCCN1CCOCC1)c1cn2c(ccc3sc4ccccc4c(=O)c32)n1 | 4.62 µM (inactive) |
| N=C(N)SCC(=O)O | > 100 µM (inactive) |

---

Test system: OVCAR-8
Measurement Notes: NCI tumour cell line growth inhibition, 48 h
Active and inactive are the calls of the source. Rule as the data show it: active = GI50 up to about 1.1 µM and inactive = higher.
The following compounds are shown together with reported GI50 values.
Outcome Measure: GI50

| Compound | Experimental System | Test Value |
| --- | --- | --- |
| O=C1c2ccccc2C2(O)Oc3cccc(O)c3C12O (stereo not given) | OVCAR-8 | > 100 µM (inactive) |
| CC(=O)OCC(=O)O[C@@H]1[C@H]2[C@@H](OC(=O)c3ccccc3)[C@@H](C)C[C@]2(O)[C@H](OC(C)=O)[C@@]2(C)C(OC(C)=O)[C@]1(OC(C)=O)C[C@H]1C(=O)C(C)(C)C[C@@H]12 (stereo not given in full) | OVCAR-8 | > 50 µM (inactive) |
| CCCCCCc1cn([C@H]2C[C@H](O)[C@@H](CO)O2)c(=O)[nH]c1=O | OVCAR-8 | > 100 µM (inactive) |
| CS/C(=N\C(=S)N(C)C)N(c1ccccc1)c1nc(N(C)C)s[s+]1 | OVCAR-8 | 10.4 µM (inactive) |
| CC(C)(C)/N=C1\C(=O)C2(C)CCC1C2(C)C (stereo not given) | OVCAR-8 | > 100 µM (inactive) |
